Data origin: paper PMC12261233

Test system: U87MG spheroids
Test: Antiproliferative activity, 3D spheroids, CellTiter-Glo 3D assay
Assay type: cell-based, human
Settings: U87MG 3D spheroids, dark; 90 min treatment, 70 h drug-free; CellTiter-Glo 3D; read-out: IC50 3D Dark
Experimental: The antiproliferative activity of the compounds under investigation was assessed using the Sulforhodamine B (SRB) assay on both 2D cell monolayers and 3D spheroids. […] The stained cells were dissolved with Tris (10 mM), and the cell viability was assessed by measuring the absorbance at 570 nm using an Absorbance Reader (SPARK TECAN, SCHOELLER). […] The antiproliferative activity (IC50 valuesa) of the investigated compounds determined in 2D and 3D models of U87MG cellsb […]
Provide the recorded pIC50 for the entries that follow.
Please keep in mind that pIC50 is minus log10 of the molar concentration; only the number is needed.

Given item Cc1ccc(-c2cc3[n+]4c(c2)-c2cccc[n+]2[Ir-3]42([Cl])([c]4cc5ccccc5cc4-c4n(Cc5ccc(C(F)(F)F)cc5)c5ccccc5[n+]42)[n+]2ccccc2-3)cc1.F[P-](F)(F)(F)(F)F [Ir3] , the value recorded as its pIC50 is 4.44

Given item Cc1ccc(-c2cc3[n+]4c(c2)-c2cccc[n+]2[Ir-3]42([Cl])([c]4c(ccc5c4OCO5)-c4n(C)c5ccccc5[n+]42)[n+]2ccccc2-3)cc1.F[P-](F)(F)(F)(F)F [Ir9] , the value recorded as its pIC50 is 4.72

Given item Cc1ccc(-c2cc3[n+]4c(c2)-c2cccc[n+]2[Ir-3]42([Cl])([c]4ccccc4-c4n(Cc5ccc(C(F)(F)F)cc5)c5ccccc5[n+]42)[n+]2ccccc2-3)cc1.F[P-](F)(F)(F)(F)F [Ir2] , the value recorded as its pIC50 is 4.83

Given item CCCCn1c2[n+](c3cc(C(=O)OC)ccc31)[Ir-3]13([Cl])([c]4ccccc4-2)[n+]2ccccc2-c2cc(-c4ccc(C)cc4)cc([n+]21)-c1cccc[n+]13.F[P-](F)(F)(F)(F)F [Ir4] , the value recorded as its pIC50 is 4.56

Given item Cc1ccc(-c2cc3[n+]4c(c2)-c2cccc[n+]2[Ir-3]42([Cl])([c]4c(ccc5c4OCO5)-c4n(Cc5ccc(C(F)(F)F)cc5)c5ccccc5[n+]42)[n+]2ccccc2-3)cc1.F[P-](F)(F)(F)(F)F [Ir5] , the value recorded as its pIC50 is 4.49
